Quick list: solubility in Heptane per entry.
- Assay Summary: solubility of the compound in common solvents
- Format: physicochemical
- Experimental Context: 25-30° C.; heptane

INPUT: # return recorded solubility in Heptane for entry CCCCCCCCCCCCCOc1ccc(CN(CCOCCOc2ccc(C(N)c3ccccc3)cc2)C(C)=O)cc1OCCCCCCCCCCCCC (stereo not drawn) [DPA-027]
OUTPUT: >50%

INPUT: # return recorded solubility in Heptane for entry CCCCCCCCCCCCCOc1cc(C(=O)NCCOCCOc2ccc(C(O)(c3ccccc3)c3ccccc3Cl)cc2)cc(OCCCCCCCCCCCCC)c1OCCCCCCCCCCCCC (stereo not drawn) [DPA-033]
OUTPUT: >30%

====

- Assay Summary: solubility of the compound in common solvents
- Assay type: physicochemical
- Experimental Context: 25-30° C.; N,N-dimethylformamide
Recorded Endpoint: solubility in DMF

Reference set (2 entries):
1) CCCCCCCCCCCCCOc1cc(C(=O)N(C)CCOc2ccc(C(N)c3ccccc3)cc2)cc(OCCCCCCCCCCCCC)c1OCCCCCCCCCCCCC (stereo not drawn): >100%
2) CC(C)CCCC(C)CCCC(C)CCCC(C)CCOc1ccc(C(N)c2ccc(OCCC(C)CCCC(C)CCCC(C)CCCC(C)C)cc2)cc1 (stereo not drawn) [REF-001, reference compound]: >0.1%

INPUT: # return recorded solubility in DMF for entry CCCCCCCCCCCCCOc1cc(C(=O)NCCOCCOc2ccc(C(O)(c3ccccc3)c3ccc(Cl)cc3)cc2)cc(OCCCCCCCCCCCCC)c1OCCCCCCCCCCCCC (stereo not drawn)
OUTPUT: >40%

INPUT: # return recorded solubility in DMF for entry CCCCCCCCCCCCCOc1ccc(CN(CCOCCOc2ccc(C(N)c3ccccc3)cc2)C(=O)CC(C)CC(C)(C)C)cc1OCCCCCCCCCCCCC (stereo not drawn)
OUTPUT: >100%

INPUT: # return recorded solubility in DMF for entry CCCCCCCCCCCCCOc1ccc(CN(CC(=O)NCCOCCOc2ccc(C(N)c3ccccc3)cc2)C(=O)CC(C)CC(C)(C)C)cc1OCCCCCCCCCCCCC (stereo not drawn)
OUTPUT: >40%

INPUT: # return recorded solubility in DMF for entry CCCCCCCCCCCCCOc1ccc(CN(CC(=O)NCCOCCOc2ccc(C(N)c3ccccc3)cc2)C(=O)c2cc(OCCCCCCCCC)c(OCCCCCCCCC)c(OCCCCCCCCC)c2)cc1OCCCCCCCCCCCCC (stereo not drawn)
OUTPUT: >100%

====

- Assay Summary: solubility of the compound in common solvents
- Format: physicochemical
- Experimental Context: 25-30° C.; methyl tert-butyl ether
Quick list: solubility in MTBE per entry.

Reference set (4 entries):
1) CCCCCCCCCCCCOc1cc(C(=O)NCCOCCOc2ccc(C(N)c3ccccc3)cc2)cc(OCCCCCCCCCCCC)c1OCCCCCCCCCCCC (centres unmarked): >50%
2) CCCCCCCCCCCCCOc1cc(C(=O)NCCOCCOc2ccc(C(O)(c3ccccc3)c3ccccc3Cl)cc2)cc(OCCCCCCCCCCCCC)c1OCCCCCCCCCCCCC (centres unmarked): >50%
3) CCCCCCCCCCCCCOc1ccc(CN(CC(=O)NCCOCCOc2ccc(C(N)c3ccccc3)cc2)C(=O)c2cc(OCCCCCCCCC)c(OCCCCCCCCC)c(OCCCCCCCCC)c2)cc1OCCCCCCCCCCCCC (centres unmarked): >100%
4) CCCCCCCCCCCCCOc1ccc(CN(CCOCCOc2ccc(C(N)c3ccccc3)cc2)C(=O)c2cc(OCCCCCCCCC)c(OCCCCCCCCC)c(OCCCCCCCCC)c2)cc1OCCCCCCCCCCCCC (centres unmarked): >100%

Now consider the entry below.
INPUT: # return recorded solubility in MTBE for entry CC(C)CCCC(C)CCCC(C)CCCC(C)CCOc1ccc(C(N)c2ccc(OCCC(C)CCCC(C)CCCC(C)CCCC(C)C)cc2)cc1 (centres unmarked) [REF-001, reference compound]
OUTPUT: >100%
